molecular target: PRMT5/MEP50 complex (Homo sapiens); experiment: Inhibition of recombinant human fetal brain FLAG-tagged PRMT5/full length human testis 6His-tagged MEP50 expressed in baculovirus infected insect Sf9 cells using human histone H4 (1 to 15 residues) as substrate preincubated for 30 mins followed by [3H]-SAM addition
Sequence (O14744 whole entry, the tested form may be a part): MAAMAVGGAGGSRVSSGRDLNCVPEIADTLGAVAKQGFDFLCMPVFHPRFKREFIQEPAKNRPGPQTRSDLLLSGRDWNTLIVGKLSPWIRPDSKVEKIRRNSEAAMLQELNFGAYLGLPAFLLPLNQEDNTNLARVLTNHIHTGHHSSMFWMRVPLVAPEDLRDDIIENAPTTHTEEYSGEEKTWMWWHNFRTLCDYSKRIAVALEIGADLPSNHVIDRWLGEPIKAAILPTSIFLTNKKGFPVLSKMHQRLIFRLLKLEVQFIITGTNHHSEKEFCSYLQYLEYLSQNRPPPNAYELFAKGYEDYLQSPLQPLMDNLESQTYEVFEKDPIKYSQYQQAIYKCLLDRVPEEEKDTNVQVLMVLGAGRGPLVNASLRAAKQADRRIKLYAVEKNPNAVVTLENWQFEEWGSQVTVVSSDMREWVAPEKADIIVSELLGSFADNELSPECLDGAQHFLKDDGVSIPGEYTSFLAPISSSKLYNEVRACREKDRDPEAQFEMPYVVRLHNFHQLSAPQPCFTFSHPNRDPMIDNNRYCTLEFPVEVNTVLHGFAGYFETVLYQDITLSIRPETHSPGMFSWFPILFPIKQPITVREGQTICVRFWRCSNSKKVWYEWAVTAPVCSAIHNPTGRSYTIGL
Sequence (Q9BQA1 whole entry, further chain, the tested form may be a part): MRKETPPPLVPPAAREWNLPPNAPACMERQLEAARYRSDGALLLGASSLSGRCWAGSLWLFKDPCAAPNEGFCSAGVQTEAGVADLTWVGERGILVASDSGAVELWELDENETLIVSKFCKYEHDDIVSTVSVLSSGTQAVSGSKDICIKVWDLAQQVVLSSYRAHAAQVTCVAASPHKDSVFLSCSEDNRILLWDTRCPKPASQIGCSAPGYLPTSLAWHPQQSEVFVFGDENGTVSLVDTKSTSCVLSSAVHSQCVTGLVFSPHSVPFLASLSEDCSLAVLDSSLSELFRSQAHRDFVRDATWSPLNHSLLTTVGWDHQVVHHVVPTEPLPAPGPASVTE
IC50 values by entry

CN(C)c1ncccc1OCC(=O)NCC(O)CN1CCc2ccccc2C1 (stereo not given) : 0.101 to 1 µM
O=C(COc1ccccc1S(=O)(=O)N1CCNCC1)NCC(O)CN1CCc2ccccc2C1 (stereo not given) : < 0.1 µM
Cc1cccc2c1CCN(CC(O)COc1cccc(-c3ccc4ncn(C)c4c3)c1)C2 (stereo not given) : 1 to 10 µM
NC(=O)c1cccc(C(=O)NCC(O)CN2CCc3ccccc3C2)c1 (stereo not given) : 0.101 to 1 µM
OC(COc1cccc(CNC2CCCC2)c1)CN1Cc2ccccc2C1 (stereo not given) : 1 to 10 µM
Cc1ccc(F)c(-c2cccc(OCC(O)CN3CCc4ccccc4C3)c2)c1 (stereo not given) : 0.101 to 1 µM
O=C1CN(c2cccc(N3CCOCC3)c2)CCN1CC(O)CN1CCc2ccccc2C1 (stereo not given) : < 0.1 µM
O=C(Cn1cnc2ccc(-c3cccc(OCC(O)CN4CCc5ccccc5C4)c3)cc21)N1CCOCC1 (stereo not given) : 0.101 to 1 µM
OC(COc1cccc(-c2ccc(C(F)(F)F)cc2Cl)c1)CN1CCc2ccccc2C1 (stereo not given) : 0.101 to 1 µM

For the next question, use this molecule.
**Query** Please look up its IC50: N#Cc1ccccc1-c1cccc(OCC(O)CN2CCc3ccccc3C2)c1 (stereo not given)
**Result** 0.101 to 1 µM

The measurements presented in this section are drawn from ChEMBL document CHEMBL3879915.
